- System: Cricetinae gen. sp.
- procedure_details: In vivo HNE inhibitory activity of lung hemorrhage in 6-8 hamsters
- Format: functional, Cricetulus griseus
- Design: concentration or dose not given beside the values
parameter_measured: Inhibition
The answer should read as a number with its unit following.

Example entries begin here.
{"compound": "CC(C)C(NC(=O)[C@@H]1CCCN1C(=O)[C@@H](NC(=O)c1ccc(C(=O)N2CCOCC2)cc1)C(C)C)C(=O)C(F)(F)C(F)(F)F (stereo partly drawn)", "parameter_measured": "Inhibition", "recorded_result": "74%"}
{"compound": "CC(C)C(NC(=O)[C@@H]1CSCN1C(=O)[C@@H](NC(=O)c1ccc(C(=O)N2CCOCC2)cc1)C(C)C)C(=O)C(F)(F)C(F)(F)F (stereo partly drawn)", "parameter_measured": "Inhibition", "recorded_result": "0%"}
{"compound": "CC(C)C(NC(=O)[C@@H]1CCCN1C(=O)[C@@H](NC(=O)c1ccc(C(=O)N2CCOCC2)cc1)C(C)C)C(=O)C(F)(F)C(F)(F)C(F)(F)F (stereo partly drawn)", "parameter_measured": "Inhibition", "recorded_result": "47%"}
{"compound": "CC(C)C(NC(=O)[C@H]1CCN1C(=O)[C@@H](NC(=O)c1ccc(C(=O)N2CCOCC2)cc1)C(C)C)C(=O)C(F)(F)C(F)(F)F (stereo partly drawn)", "parameter_measured": "Inhibition", "recorded_result": "79%"}
{"compound": "CC(C)C(NC(=O)[C@H]1CC(OCc2ccccc2)CN1C(=O)[C@@H](NC(=O)c1ccc(C(=O)N2CCOCC2)cc1)C(C)C)C(=O)C(F)(F)C(F)(F)F (stereo partly drawn)", "parameter_measured": "Inhibition", "recorded_result": "7%"}

Could you share which Inhibition value was measured for CC(C)C(NC(=O)C1CC(O)CN1C(=O)[C@@H](NC(=O)c1ccc(C(=O)N2CCOCC2)cc1)C(C)C)C(=O)C(F)(F)C(F)(F)F (stereo partly drawn) ?
0%

Please answer likewise for CC(=O)OC1CC(C(=O)NC(C(=O)C(F)(F)C(F)(F)F)C(C)C)N(C(=O)[C@@H](NC(=O)c2ccc(C(=O)N3CCOCC3)cc2)C(C)C)C1 (stereo partly drawn)
0%

Then CC(C)C(NC(=O)C1CCCCN1C(=O)[C@@H](NC(=O)c1ccc(C(=O)N2CCOCC2)cc1)C(C)C)C(=O)C(F)(F)C(F)(F)F (stereo partly drawn) ?
54%
